Target: β5 (Homo sapiens, UniProt P20618+P28074)
Construct: endogenous in cells; host or cells: MOLT-4
Experiment: ProCISE proteasome subunit assay, β5
Type: biochemical
Settings: MOLT4 lysate Hu 1 h
observable: IC50 (nM)

Past entries and their recorded results:
COc1ccc(C[C@H](NC(=O)[C@@H](C)NC(=O)c2nc3ccccc3n2C)C(=O)N[C@@H](CC2CCCC2)C(=O)[C@@]2(C)CO2)cc1    2700
COc1ccc(C[C@H](NC(=O)[C@@H](C)NC(=O)CC(C)(C)O)C(=O)N[C@@H](CC2CCCC2)C(=O)[C@@]2(C)CO2)cc1O    534
COc1ccc(C[C@H](NC(=O)[C@@H](C)NC(=O)C2=C(C)c3ccccc3C2)C(=O)N[C@@H](CC2CCCC2)C(=O)[C@@]2(C)CO2)cc1    3750

I. COc1ccc(C[C@H](NC(=O)[C@@H](CC(=O)O)NC(=O)OCc2ccccc2)C(=O)N[C@@H](Cc2ccccc2)C(=O)[C@@]2(C)CO2)cc1
II. COc1ccc(C[C@H](NC(=O)[C@@](C)(O)C(F)(F)F)C(=O)N[C@@H](Cc2ccccc2)C(=O)[C@@]2(C)CO2)cc1
III. COc1ccc(C[C@H](NC(=O)[C@@H](C)NC(=O)CC(C)(C)O)C(=O)N[C@@H](Cc2ccc(C)cc2)C(=O)[C@H]2CO2)cc1
IV. C[C@@H](NC(=O)CC(C)(C)O)C(=O)N[C@@H](Cc1ccc(S(C)(=O)=O)cc1)C(=O)N[C@@H](CC1CCCC1)C(=O)[C@@]1(C)CO1
V. COc1ccc(C[C@H](NC(=O)[C@@H](C)NC(=O)CC(C)(C)O)C(=O)N[C@@H](Cc2ccccc2)C(=O)[C@@]2(C)CO2)cc1
IN: With regard to IC50, arrange the entries in ascending order, please. Please express your ranking as an ordered list of the labels.
OUT: III, I, V, IV, II

a. CC1=C(C(=O)N[C@H](C)C(=O)N[C@@H](Cc2c[nH]c3ccccc23)C(=O)N[C@@H](CC2CCCC2)C(=O)[C@@]2(C)CO2)Cc2ccccc21
b. COc1ccc(C[C@H](NC(=O)[C@@H](CC(=O)OC(C)(C)C)NC(=O)OCc2ccccc2)C(=O)N[C@@H](Cc2ccccc2)C(=O)[C@@]2(C)CO2)cc1
c. COc1ccc(C[C@H](NC(=O)[C@@H](C)NC(=O)Cc2cc(C)no2)C(=O)N[C@@H](CC2CCCC2)C(=O)[C@@]2(C)CO2)cc1
IN: With regard to IC50, arrange the entries in ascending order, please. Please express your ranking as an ordered list of the labels.
OUT: b, a, c
